Target: T1, human Protein S (human, UniProt P07225 42-676)
T1 construct: Called 'full length Protein S' / 'human full-length Protein S'; It was coated on plates (ELISA), Eu-labeled (LANCE) or immobilized on a chip (Biacore); also called PS; full length Protein S
T1 sequence: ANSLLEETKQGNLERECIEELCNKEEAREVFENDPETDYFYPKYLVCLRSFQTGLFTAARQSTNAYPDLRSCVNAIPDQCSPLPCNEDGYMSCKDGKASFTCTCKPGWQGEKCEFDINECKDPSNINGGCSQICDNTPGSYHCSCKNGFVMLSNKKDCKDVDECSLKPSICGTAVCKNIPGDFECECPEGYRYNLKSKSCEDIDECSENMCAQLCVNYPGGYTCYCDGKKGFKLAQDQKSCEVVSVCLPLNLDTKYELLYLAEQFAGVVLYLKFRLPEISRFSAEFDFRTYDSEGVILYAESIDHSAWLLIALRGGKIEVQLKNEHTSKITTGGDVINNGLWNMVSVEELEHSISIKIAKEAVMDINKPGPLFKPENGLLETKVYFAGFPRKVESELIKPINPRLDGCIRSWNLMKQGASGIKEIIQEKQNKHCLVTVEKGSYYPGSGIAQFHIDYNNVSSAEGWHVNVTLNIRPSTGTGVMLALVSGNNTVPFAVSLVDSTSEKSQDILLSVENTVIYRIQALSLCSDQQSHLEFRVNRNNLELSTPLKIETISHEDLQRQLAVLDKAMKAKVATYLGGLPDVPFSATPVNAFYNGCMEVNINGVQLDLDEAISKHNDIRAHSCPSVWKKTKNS
Assay: Biacore (SPR), Protein S immobilized, 25 °C
pKd: −log10 of the molar value.

| binder | pKd |
| --- | --- |
| Ac-TGLVSAGWYDYNFDHYREFT-NH2 (also called parent peptide JBS2572) [JBS2572] | 8.22 |
